Listing of entries alongside the reported target mRNA knockdown.
Conditions: siRNA; also: test system not given here
HELM strings list units from the 5' end as sugar, base in round brackets, then linkage (d deoxyribose, r ribose, m 2'-O-methyl, p phosphodiester). Strings are as the collection lists them, not checked against the first reports. ss, as = sense and antisense strand
Provide only the numeric value, understood in %.

Solved cases (2 shown):
substance	units.text	target mRNA knockdown
RNA1{m(C)p.r(U)p.m(G)p.r(A)p.m(C)p.r(C)p.m(G)p.r(G)p.m(A)p.r(A)p.m(G)p.r(C)p.m(G)p.r(C)p.m(U)p.r(U)p.m(A)p.r(A)p.r(A)p.r(T)p.r(T)}|RNA2{r(U)p.r(U)p.r(U)p.r(A)p.r(A)p.r(G)p.r(C)p.r(G)p.m(C)p.r(U)p.r(U)p.r(C)p.m(C)p.r(G)p.r(G)p.r(U)p.m(C)p.r(A)p.r(G)p.r(T)p.r(T)}$$$RNA1{StrandType:ss}|RNA2{StrandType:as}$	%	27
RNA1{r(A)p.r(G)p.r(C)p.r(G)p.r(G)p.r(G)p.r(G)p.m(U)p.r(A)p.m(U)p.r(G)p.r(A)p.r(A)p.r(G)p.m(A)p.r(G)p.r(C)p.r(U)p.r(U)p.r(T)p.r(T)}|RNA2{r(A)p.r(A)p.r(G)p.r(C)p.r(U)p.r(C)p.r(U)p.r(U)p.m(C)p.r(A)p.m(U)p.r(A)p.r(C)p.r(C)p.r(C)p.r(C)p.r(G)p.r(C)p.r(U)p.r(T)p.r(T)}$$$RNA1{StrandType:ss}|RNA2{StrandType:as}$	%	85

Here's the next entry for you.
Give me measured target mRNA knockdown, please, for this substance: `RNA1{r(C)p.r(U)p.r(G)p.r(A)p.r(C)p.r(C)p.r(G)p.r(G)p.r(A)p.r(A)p.r(G)p.r(C)p.r(G)p.r(C)p.r(U)p.m(U)p.r(A)p.r(A)p.r(A)p.r(T)p.r(T)}|RNA2{r(U)p.r(U)p.m(U)p.r(A)p.r(A)p.r(G)p.r(C)p.r(G)p.r(C)p.r(U)p.r(U)p.r(C)p.r(C)p.r(G)p.r(G)p.r(U)p.r(C)p.r(A)p.r(G)p.r(T)p.r(T)}$$$RNA1{StrandType:ss}|RNA2{StrandType:as}$`
86

---

Conditions: siRNA
HELM strings list units from the 5' end as sugar, base in round brackets, then linkage (d deoxyribose, r ribose, m 2'-O-methyl, p phosphodiester). Strings are as the collection lists them, not checked against the first reports. ss, as = sense and antisense strand; [lna] = locked nucleic acid (LNA); [s4r] = 4'-thioribose; [fl2r] = 2'-fluoro
Each record is given y if its reported target mRNA knockdown is strictly below 50%. Records at or above 50% are given n.

As a guide, the following entries are already answered.
substance	answer.label
RNA1{[s4r](C)p.[s4r](G)p.[s4r](U)p.[s4r](A)p.[s4r](C)p.[s4r](G)p.[s4r](C)p.[s4r](G)p.[s4r](G)p.[s4r](A)p.[s4r](A)p.[s4r](U)p.[s4r](A)p.[s4r](C)p.[s4r](U)p.[s4r](U)p.[s4r](C)p.[s4r](G)p.[s4r](A)p.r(T)p.r(T)}|RNA2{r(U)p.r(C)p.r(G)p.r(A)p.r(A)p.r(G)p.r(U)p.r(A)p.r(U)p.r(U)p.r(C)p.r(C)p.r(G)p.r(C)p.r(G)p.r(U)p.r(A)p.r(C)p.r(G)p.r(T)p.r(T)}$$$RNA1{StrandType:ss}|RNA2{StrandType:as}$	n
RNA1{r(U)p.r(G)p.r(A)p.r(G)p.r(A)p.r(G)p.r(A)p.r(A)p.r(A)p.r(G)p.r(C)p.r(A)p.r(C)p.r(A)p.r(G)p.r(A)p.r(A)p.r(A)p.r(A)p.d(T)p.d(T)}|RNA2{[lna](T)p.r(U)p.r(U)p.r(U)p.r(C)p.r(U)p.r(G)p.r(U)p.r(G)p.r(C)p.r(U)p.r(U)p.r(U)p.r(C)p.r(U)p.r(C)p.r(U)p.r(C)p.r(A)p.[lna](T)p.[lna](T)}$$$RNA1{StrandType:ss}|RNA2{StrandType:as}$	y
RNA1{[fl2r](U)p.r(A)p.[fl2r](A)p.r(C)p.[fl2r](C)p.r(C)p.[fl2r](C)p.r(A)p.[fl2r](A)p.r(G)p.[fl2r](A)p.r(A)p.[fl2r](C)p.r(G)p.[fl2r](G)p.r(G)p.[fl2r](C)p.r(U)p.[fl2r](U)p.r(T)p.r(T)}|RNA2{[fl2r](A)p.[fl2r](A)p.r(G)p.r(C)p.r(C)p.r(C)p.r(G)p.r(U)p.r(U)p.r(C)p.r(U)p.r(U)p.r(G)p.r(G)p.r(G)p.r(G)p.r(U)p.r(U)p.[fl2r](A)p.r(T)p.r(T)}$$$RNA1{StrandType:ss}|RNA2{StrandType:as}$	y

Quick check: does `RNA1{r(G)p.r(C)p.r(A)p.r(A)p.r(C)p.r(U)p.r(C)p.r(A)p.r(U)p.r(G)p.r(G)p.r(U)p.r(U)p.r(C)p.r(A)p.r(U)p.r(G)p.r(C)p.r(U)p.r(T)p.r(T)}|RNA2{r(A)p.r(G)p.r(C)p.r(A)p.r(U)p.r(G)p.r(A)p.r(A)p.r(C)p.r(C)p.r(A)p.r(U)p.r(G)p.r(A)p.r(G)p.r(U)p.r(U)p.r(G)p.r(C)p.d(T)p.d(T)}$$$RNA1{StrandType:ss}|RNA2{StrandType:as}$` have target mRNA knockdown under 50%?
y

Quick check: does `RNA1{r(A)p.r(G)p.r(U)p.r(C)p.r(C)p.r(C)p.m(U)p.r(G)p.r(G)p.r(A)p.r(G)p.r(C)p.r(C)p.r(U)p.m(U)p.r(A)p.r(A)p.r(A)p.r(C)p.r(T)p.r(T)}|RNA2{r(G)p.r(U)p.r(U)p.m(U)p.r(A)p.r(A)p.r(G)p.r(G)p.r(C)p.r(U)p.r(C)p.m(C)p.r(A)p.r(G)p.r(G)p.r(G)p.r(A)p.r(C)p.r(U)p.r(T)p.r(T)}$$$RNA1{StrandType:ss}|RNA2{StrandType:as}$` have target mRNA knockdown under 50%?
n

---

Details: siRNA
HELM strings list units from the 5' end as sugar, base in round brackets, then linkage (d deoxyribose, r ribose, m 2'-O-methyl, p phosphodiester). Strings are as the collection lists them, not checked against the first reports. ss, as = sense and antisense strand; [lna] = locked nucleic acid (LNA)
Listing of entries alongside the reported target mRNA knockdown.

substance	target mRNA knockdown
RNA1{r(G)p.r(G)p.r(C)p.r(G)p.r(G)p.r(G)p.r(C)p.r(U)p.r(C)p.r(U)p.r(U)p.r(U)p.r(C)p.r(C)p.m(U)p.r(A)p.r(U)p.r(U)p.r(C)p.r(T)p.r(T)}|RNA2{r(G)p.r(A)p.r(A)p.m(U)p.r(A)p.r(G)p.r(G)p.r(A)p.r(A)p.r(A)p.r(G)p.r(A)p.r(G)p.r(C)p.r(C)p.r(C)p.r(G)p.r(C)p.r(C)p.r(T)p.r(T)}$$$RNA1{StrandType:ss}|RNA2{StrandType:as}$	69%

Here's the next entry for you.
Give me measured target mRNA knockdown, please, for this substance: `RNA1{[lna](G)p.[lna](C)p.[lna](T)p.r(G)p.r(A)p.r(C)p.[lna](C)p.r(C)p.r(U)p.[lna](G)p.r(A)p.r(A)p.r(G)p.[lna](T)p.[lna](T)p.r(C)p.r(A)p.r(U)p.r(C)p.[lna](T)p.[lna](T)}|RNA2{r(G)p.r(A)p.r(U)p.r(G)p.r(A)p.r(A)p.r(C)p.r(U)p.r(U)p.r(C)p.r(A)p.r(G)p.r(G)p.r(G)p.r(U)p.r(C)p.r(A)p.r(G)p.r(C)p.[lna](T)p.[lna](T)}$$$RNA1{StrandType:ss}|RNA2{StrandType:as}$`
0%

---

Settings: siRNA
HELM strings list units from the 5' end as sugar, base in round brackets, then linkage (d deoxyribose, r ribose, m 2'-O-methyl, p phosphodiester). Strings are as the collection lists them, not checked against the first reports. ss, as = sense and antisense strand; [fl2r] = 2'-fluoro
endpoint.label: target mRNA knockdown
Please provide the amount together with its unit, number first.

Give me measured target mRNA knockdown, please, for this substance: `RNA1{[fl2r](G)p.m(A)p.[fl2r](C)p.m(G)p.[fl2r](U)p.m(A)p.[fl2r](A)p.m(A)p.[fl2r](C)p.m(G)p.[fl2r](G)p.m(C)p.[fl2r](C)p.m(A)p.[fl2r](C)p.m(A)p.[fl2r](A)p.m(G)p.[fl2r](U)p.m(U)p.[fl2r](C)}|RNA2{r(A)p.r(C)p.r(U)p.r(U)p.r(G)p.r(U)p.r(G)p.r(G)p.r(C)p.r(C)p.r(G)p.r(U)p.r(U)p.r(U)p.r(A)p.r(C)p.r(G)p.r(U)p.r(C)p.r(G)p.r(C)}$$$RNA1{StrandType:ss}|RNA2{StrandType:as}$`
87.3%

The values you see were collected from the OligoGym collection.
